Entries and their measured % Recovery follow.
# System: human A375 cells
# Method notes: Protection of melanocytes from tunicamycin (ER stress) induced cell death, MTT assay, A375
# Format: cell-based
# Experimental parameters: compound at 25-30 μM, 6 h pretreatment, tunicamycin 100 ng/ml, total 72 h, cell growth over tunicamycin treatment
Outcome measure: % Recovery (%)

[
  {
    "Given smiles": "CCC(C)(C)C(=O)NCCc1c[nH]c(-c2ccc(Cl)cc2)n1",
    "Outcome measure": "% Recovery",
    "Result units": "%",
    "Recorded value": 50
  },
  {
    "Given smiles": "O=C(NCCc1c[nH]c(-c2ccc(Cl)cc2)n1)C1CCC1",
    "Outcome measure": "% Recovery",
    "Result units": "%",
    "Recorded value": 27
  },
  {
    "Given smiles": "O=C(NCCc1c[nH]c(-c2ccc(Cl)cc2)n1)C1CC1",
    "Outcome measure": "% Recovery",
    "Result units": "%",
    "Recorded value": 63
  },
  {
    "Given smiles": "O=C(Cc1c[nH]c(-c2ccc(Cl)cc2)n1)NCCc1ccc(F)cc1",
    "Outcome measure": "% Recovery",
    "Result units": "%",
    "Recorded value": 25
  },
  {
    "Given smiles": "Cn1cc(CC(=O)Nc2cccc(C(F)(F)F)c2)nc1-c1ccc(Cl)cc1",
    "Outcome measure": "% Recovery",
    "Result units": "%",
    "Recorded value": 19
  },
  {
    "Given smiles": "Cn1cc(CC(=O)NCCc2ccc(F)cc2)nc1-c1ccc(Cl)cc1",
    "Outcome measure": "% Recovery",
    "Result units": "%",
    "Recorded value": 18
  },
  {
    "Given smiles": "O=C(NCCc1c[nH]c(-c2cc(Cl)cc(Cl)c2)n1)c1cc(F)cc(F)c1",
    "Outcome measure": "% Recovery",
    "Result units": "%",
    "Recorded value": 88
  }
]
